- ASSAYED_TARGET: VAV1 (Homo sapiens, UniProt P15498+Q96SW2)
- Construct: A heterozygous VAV1 C-terminal HiBiT knock-in pool was generated at Monte Rosa Therapeutics from a clonal Jurkat cell; endogenous in cells; host or cells: Jurkat clone stably expressing LgBiT, homozygous GSPT1-G575N; heterozygous VAV1-HiBiT knock-in pool
- TEST_DESCRIPTION: VAV1 degradation activity, VAV1-HiBiT knock-in Jurkat luminescence assay (Example A, Table 1)
- Format: cell-based
- TEST_CONTEXT: Jurkat, VAV1-HiBiT knock-in Jurkat cells, luminescence read at 6 and 24 hours; read-out: VAV1 Dmax %, class
In this section, each of the compounds is paired with its reported Dmax.

1) O=C1CCC(c2cccc(-c3ccc(OCc4c[nH]cn4)cc3)c2Cl)C(=O)N1 (centres unmarked) [Compound 167] = 60 to 90%
2) Nc1ccnn1Cc1ccc(-c2cccc(C3CCC(=O)NC3=O)c2Cl)cc1 (centres unmarked) [Compound 118] = 60 to 90%

*Q* Read the entry CC1(C)COCC(=O)N1c1ccc(-c2cccc(C3CCC(=O)NC3=O)c2Cl)cc1 (centres unmarked) [Compound 402] and write its reported Dmax.
*A* > 90%

*Q* Please give the documented Dmax of O=C1CCC(c2cccc(-c3ccc(-n4ccccc4=O)nc3)c2Cl)C(=O)N1 (centres unmarked) [Compound 477]
*A* 60 to 90%

*Q* Recall and state the measured Dmax for O=C1CCC(c2cccc(-c3ccc(Cc4ncco4)nc3)c2Cl)C(=O)N1 (centres unmarked) [Compound 430] .
*A* 60 to 90%

*Q* Name the recorded Dmax of the item CC(C)(c1ccc(-c2cccc(C3CCC(=O)NC3=O)c2Cl)cc1)n1ccccc1=O (centres unmarked) [Compound 231] in your answer.
*A* > 90%

*Q* Specify measured Dmax for O=C1CCC(c2cccc(-c3ccc(S(=O)(=O)N4CCCC4)cc3)c2Cl)C(=O)N1 (centres unmarked) [Compound 438] .
*A* > 90%

*Q* Provide Dmax value for the following compound: Cn1cnc(Cn2c(=O)oc3cc(-c4cccc(C5CCC(=O)NC5=O)c4Cl)ccc32)c1 (centres unmarked) [Compound 392]
*A* > 90%

*Q* Give a short answer stating reported Dmax for Cn1ccc(COc2ccc(-c3cccc([C@H]4CCC(=O)NC4=O)c3Cl)cc2)n1 [Compound 213] .
*A* > 90%

*Q* Provide measured Dmax value, entry: Cn1ccc(C(=O)Nc2ccc(-c3cccc(C4CCC(=O)NC4=O)c3Cl)cc2)n1 (centres unmarked) [Compound 207]
*A* 60 to 90%

*Q* Identify Dmax associated with the compound COc1cc(-c2cccc(C3CCC(=O)NC3=O)c2Cl)ccc1C (centres unmarked) [Compound 132]
*A* 60 to 90%

###

Some compounds, each annotated with its measured Dmax.
- ASSAYED_TARGET: VAV1 (Homo sapiens, UniProt P15498+Q96SW2)
- Construct: A heterozygous VAV1 C-terminal HiBiT knock-in pool was generated at Monte Rosa Therapeutics from a clonal Jurkat cell; endogenous in cells; host or cells: Jurkat clone stably expressing LgBiT, homozygous GSPT1-G575N; heterozygous VAV1-HiBiT knock-in pool
- TEST_DESCRIPTION: VAV1 degradation activity, VAV1-HiBiT knock-in Jurkat luminescence assay (Example A, Table 1)
- Format: cell-based
- TEST_CONTEXT: Jurkat, VAV1-HiBiT knock-in Jurkat cells, luminescence read at 6 and 24 hours; read-out: VAV1 Dmax %
- Experimental: Cells were plated at 10,000 cells per well using Multiflo (BioTek) or Multi Drop Combi (Thermo Fisher) in 384-well white solid bottom plates (Corning, 3570BC) in 25 ul volume in RPMI 1640 media (Thermo Fischer, 22400105) containing 10% FBS (Corning, 35-075-CV), 1% Penicillin/Streptomycin (ThermoFisher Scientific, 15140-122), and 1% Endurazine (Nano-Glo Endurazine Live Cell Substrate (Promega, N2571)). Cells were incubated for ˜16 hours at 37° C., 5% CO2. […]
Provide only the numeric value, understood in %.

Solved cases below.
1) O=C1CCC(c2cccc(-c3ccc(CN4CCn5ccnc5C4=O)cc3)c2Cl)C(=O)N1 (stereo not drawn) = 69.5
2) O=C1CCC(c2cccc(-c3ccc(Cn4ccccc4=O)cc3)c2F)C(=O)N1 (stereo not drawn) = 89.6
3) O=C1CCC(c2cccc(-c3ccc(CN4C(=O)CCCC45CC5)cc3)c2Cl)C(=O)N1 (stereo not drawn) = 95.7
4) CC1CCCN(c2ccc(-c3cccc(C4CCC(=O)NC4=O)c3Cl)cc2)C1=O (stereo not drawn) = 95.8
5) O=C1CCC(c2cccc(-c3ccc(N4CCOCC4=O)cc3)c2Cl)C(=O)N1 (stereo not drawn) = 93.5

*Q* Give measured Dmax for CN(C)CCOc1ccc(-c2cccc(C3CCC(=O)NC3=O)c2Cl)cc1 (stereo not drawn) (VAV1 (Homo sapiens, UniProt P15498+Q96SW2)).
*A* 34.9

###

# DC50 annotations
- ASSAYED_TARGET: VAV1 (Homo sapiens, UniProt P15498+Q96SW2)
- Construct: A heterozygous VAV1 C-terminal HiBiT knock-in pool was generated at Monte Rosa Therapeutics from a clonal Jurkat cell; endogenous in cells; host or cells: Jurkat clone stably expressing LgBiT, homozygous GSPT1-G575N; heterozygous VAV1-HiBiT knock-in pool
- TEST_DESCRIPTION: VAV1 degradation activity, VAV1-HiBiT knock-in Jurkat luminescence assay (Example A, Table 1)
- Assay type: cell-based
- TEST_CONTEXT: VAV1-HiBiT knock-in Jurkat cells, luminescence read at 6 and 24 hours; read-out: VAV1 DC50 (nM), class
- Experimental: Cells were plated at 10,000 cells per well using Multiflo (BioTek) or Multi Drop Combi (Thermo Fisher) in 384-well white solid bottom plates (Corning, 3570BC) in 25 ul volume in RPMI 1640 media (Thermo Fischer, 22400105) containing 10% FBS (Corning, 35-075-CV), 1% Penicillin/Streptomycin (ThermoFisher Scientific, 15140-122), and 1% Endurazine (Nano-Glo Endurazine Live Cell Substrate (Promega, N2571)). Cells were incubated for ˜16 hours at 37° C., 5% CO2. […]

1) O=C1CCC(c2cccc(-c3ccc(N4CCC(F)(F)CC4=O)cc3)c2Cl)C(=O)N1 (stereo not shown) [Compound 464] = ≤ 100 nM
2) O=C1CCC(c2cccc(-c3ccc(CN4CCCC4=O)cc3)c2Cl)C(=O)N1 (stereo not shown) [Compound 206] = ≤ 100 nM
3) O=C1CCC(c2cccc(-c3cnc(Cn4ccccc4=O)c(F)c3)c2Cl)C(=O)N1 (stereo not shown) [Compound 412] = 100 to 1000 nM

*Q* Let me know recorded DC50 for O=C1CCC(c2cccc(-c3ccc(Cc4ccco4)cc3)c2Cl)C(=O)N1 (stereo not shown) [Compound 373] , thanks.
*A* ≤ 100 nM

###

Reported Dmax values are given for each entry in this list.
- ASSAYED_TARGET: VAV1 (Homo sapiens, UniProt P15498+Q96SW2)
- Construct: A heterozygous VAV1 C-terminal HiBiT knock-in pool was generated at Monte Rosa Therapeutics from a clonal Jurkat cell; endogenous in cells; host or cells: Jurkat clone stably expressing LgBiT, homozygous GSPT1-G575N; heterozygous VAV1-HiBiT knock-in pool
- TEST_DESCRIPTION: VAV1 degradation activity, VAV1-HiBiT knock-in Jurkat luminescence assay (Example A, Table 1)
- Assay type: cell-based
- TEST_CONTEXT: Jurkat, VAV1-HiBiT knock-in Jurkat cells, luminescence read at 6 and 24 hours; read-out: VAV1 Dmax %, class

1) O=C1CCC(c2cccc(-c3ccc(N4C(=O)CCCC4C(F)F)cc3)c2Cl)C(=O)N1 (centres unmarked) [Compound 463] = > 90%
2) O=C1CCC(c2cccc(-c3ccc(CN4Cc5cnccc5C4=O)cc3)c2Cl)C(=O)N1 (centres unmarked) [Compound 300] = > 90%
3) O=C1CCC(c2cccc(-c3ccc(N4CCCNC4=O)cc3)c2Cl)C(=O)N1 (centres unmarked) [Compound 372] = > 90%
4) N#Cc1cc(-c2cccc(C3CCC(=O)NC3=O)c2Cl)ccc1O (centres unmarked) [Compound 112] = 60 to 90%
5) CN1Cc2cccc(-c3ccc(-c4cccc(C5CCC(=O)NC5=O)c4Cl)cc3)c2C1=O (centres unmarked) [Compound 439] = 60 to 90%

*Q* Answer with Dmax of O=C1CCC(c2cccc(-c3ccc(N4CCC5(COC5)C4=O)cc3)c2Cl)C(=O)N1 (centres unmarked) [Compound 358] measured for VAV1 (Homo sapiens, UniProt P15498+Q96SW2).
*A* < 60%

*Q* Under VAV1 (Homo sapiens, UniProt P15498+Q96SW2), report Dmax for Cc1cccc(=O)n1-c1ccc(-c2cccc(C3CCC(=O)NC3=O)c2Cl)cn1 (centres unmarked) [Compound 353]
*A* > 90%

*Q* State the measured Dmax (VAV1 (Homo sapiens, UniProt P15498+Q96SW2)) of CN1CCCN(Cc2ccc(-c3cccc(C4CCC(=O)NC4=O)c3Cl)cc2F)C1=O (centres unmarked) [Compound 425]
*A* > 90%

Each recorded value in this set is attributed to patent US12257247B2.
